Sourced from patent US12269831B2

study_system: CFTR (F508del/MF-HBE cells) (Homo sapiens, UniProt P13569, DEL508-508)
Construct: human bronchial epithelial (HBE) cells derived from CF subjects heterozygous for F508del and a minimal function CFTR mutation (F508del/MF-HBE); endogenous in cells
Sequence (P13569 with tags, fused parts or gaps DEL508-508): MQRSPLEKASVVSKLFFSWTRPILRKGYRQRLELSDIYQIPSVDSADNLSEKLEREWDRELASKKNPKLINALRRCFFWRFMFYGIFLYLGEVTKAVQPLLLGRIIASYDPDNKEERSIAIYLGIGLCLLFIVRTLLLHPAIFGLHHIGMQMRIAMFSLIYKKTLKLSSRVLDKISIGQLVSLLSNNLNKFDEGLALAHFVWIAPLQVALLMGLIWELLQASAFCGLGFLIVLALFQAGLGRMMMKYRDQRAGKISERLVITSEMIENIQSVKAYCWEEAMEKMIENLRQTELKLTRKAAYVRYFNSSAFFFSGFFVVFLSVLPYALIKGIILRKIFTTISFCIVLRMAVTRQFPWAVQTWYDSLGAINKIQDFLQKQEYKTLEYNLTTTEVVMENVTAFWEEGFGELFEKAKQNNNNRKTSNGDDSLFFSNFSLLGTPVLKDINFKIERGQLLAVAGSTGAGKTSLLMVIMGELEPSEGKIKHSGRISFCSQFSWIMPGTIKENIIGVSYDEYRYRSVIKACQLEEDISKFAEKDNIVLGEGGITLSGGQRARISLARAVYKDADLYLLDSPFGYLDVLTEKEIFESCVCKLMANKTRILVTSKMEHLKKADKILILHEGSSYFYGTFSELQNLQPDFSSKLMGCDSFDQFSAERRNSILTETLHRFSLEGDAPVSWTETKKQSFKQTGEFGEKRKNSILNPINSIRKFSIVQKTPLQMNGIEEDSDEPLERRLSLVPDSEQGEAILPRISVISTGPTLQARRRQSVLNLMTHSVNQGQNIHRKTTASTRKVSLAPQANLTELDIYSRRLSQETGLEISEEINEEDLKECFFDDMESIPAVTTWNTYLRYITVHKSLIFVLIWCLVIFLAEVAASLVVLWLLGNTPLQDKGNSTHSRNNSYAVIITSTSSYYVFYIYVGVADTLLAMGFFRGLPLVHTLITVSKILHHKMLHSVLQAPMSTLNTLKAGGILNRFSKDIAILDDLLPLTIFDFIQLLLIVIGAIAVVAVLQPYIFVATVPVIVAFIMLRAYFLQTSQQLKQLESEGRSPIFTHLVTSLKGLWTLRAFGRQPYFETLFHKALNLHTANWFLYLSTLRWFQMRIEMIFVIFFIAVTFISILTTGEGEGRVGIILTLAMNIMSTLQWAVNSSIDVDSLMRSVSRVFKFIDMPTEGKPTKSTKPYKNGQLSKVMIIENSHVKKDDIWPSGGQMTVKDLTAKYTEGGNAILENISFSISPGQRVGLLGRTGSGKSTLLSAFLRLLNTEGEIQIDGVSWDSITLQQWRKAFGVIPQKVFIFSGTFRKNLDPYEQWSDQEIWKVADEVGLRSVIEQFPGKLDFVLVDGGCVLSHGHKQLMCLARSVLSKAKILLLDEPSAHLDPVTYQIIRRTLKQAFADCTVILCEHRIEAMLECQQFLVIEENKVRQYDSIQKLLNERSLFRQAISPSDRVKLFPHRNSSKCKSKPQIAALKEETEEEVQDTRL
experiment_description: Ussing chamber assay of CFTR-mediated short-circuit currents (potentiator identification)
details: CFTR-mediated Isc, 18-24 h incubation at 37° C. with 10 μM (14S)-8-[3-(2-{dispiro[2.0.2.1]heptan-7-yl}ethoxy)-1H-pyrazol-1-yl]-... corrector, 20% human serum
Procedure: Ussing Chamber Assay of CFTR-Mediated Short-Circuit Currents […] To isolate the CFTR-mediated short-circuit (Isc) current, F508del/MF-HBE grown on Costar® Snapwell™ cell culture inserts were mounted in an Ussing chamber and the transepithelial ISC was measured under voltage-clamp recording conditions (Vhold=0 mV) at 37° C. […] The CFTR-mediated Isc (μA/cm^2) for each condition was determined from the peak forskolin response to the steady-state current following inhibition. […]
pEC50: −log10 of the molar value.
Reported pEC50 by item:
metric_name: pEC50

molecule="CC1CCC(O)(C(F)(F)F)C2=NN=C(O2)c2nc(c(C(F)(F)F)cc2N)Oc2cccc1c2 (single isomer, unassigned) [Compound 30]" result="> 6.30"
molecule="Nc1cc(C(F)(F)F)c2nc1-c1nnc(o1)[C@@](O)(C(F)(F)F)CCCCC[S+]2[O-] (single isomer, unassigned) [Compound 23]" result="< 6.00"
molecule="Nc1cc(C(F)(F)F)c2nc1-c1nnc(o1)[C@@](O)(C(F)(F)F)CCCCCC(Cc1ccc(F)cc1)O2 (single isomer, unassigned) [Compound 50]" result="> 6.30"
molecule="Nc1cc(C(F)(F)F)c2nc1-c1nnc(o1)[C@@](O)(C(F)(F)F)CCCCCCO2 [Compound 5]" result="> 6.30"
molecule="Nc1cc(C(F)(F)F)c2nc1-c1nnc(o1)C(O)(C(F)(F)F)CCCCc1cc(F)cc(c1)O2 (single isomer, unassigned) [Compound 31]" result="> 6.30"
molecule="OC1(C(F)(F)F)CCCCCCOc2nc(ccc2C(F)(F)F)C2=NN=C1O2 (single isomer, unassigned) [Compound 3]" result="< 6.00"
molecule="C[C@@H]1CCCCC(O)C(O)(C(F)(F)F)C2=NN=C(O2)c2nc(c(C(F)(F)F)cc2N)O1 (single isomer, unassigned) [Compound 62]" result="> 6.30"
molecule="Nc1cc(C(F)(F)F)c2nc1-c1nnc(o1)[C@@](O)(C(F)(F)F)CCCCCCS2(=O)=O (single isomer, unassigned) [Compound 9]" result="> 6.30"
